Entry source: patent US20260234129A1

Provide the recorded GI50 for the entries that follow.
- System: MV4-11 cells (FLT3-ITD-expressing AML cell line)
- test_description: Cell proliferation inhibition, Alamar Blue
- Assay type: cell-based, human
- study_conditions: Homo sapiens, MV4-11, 72 hours of compound treatment, read-out: Cellular (GI50) MV4-11

Examples from the recorded data:
NCCCNC(=O)c1ccc2[nH]nc(-c3ncc(-c4cccc(O)c4)[nH]3)c2c1 [Example 92]; 0.1 to 1 µM
NCCCNC(=O)c1ccc2[nH]nc(-c3nc4ccc(CN5CCOCC5)cc4[nH]3)c2c1 [Example 26]; 0.1 to 1 µM
O=C(NCCCO)c1ccc2[nH]nc(-c3nc4ccc(F)cc4[nH]3)c2c1 [Example 111]; 0.1 to 1 µM
O=C(c1ccc2[nH]nc(-c3nc4ccccc4[nH]3)c2c1)N1CCN(c2ccc(F)cc2)CC1 [Example 3]; > 1 µM
CN(C)CCCNC(=O)c1ccc2[nH]nc(-c3nc4ccc(F)cc4[nH]3)c2c1 [Example 36]; 0.01 to 0.1 µM

List GI50 for every entry below, keeping the order given.
1. NCCCNC(=O)c1ccc2[nH]nc(-c3nc4ccc(F)cc4n3CCO)c2c1 [Example 109]
2. O=C(NCCCC(F)(F)F)c1ccc2[nH]nc(-c3nc4ccc(N5CCCC5)cc4[nH]3)c2c1 [Example 13]
3. NCCCNC(=O)c1ccc2[nH]nc(-c3ncc(-c4cccc(N)c4)[nH]3)c2c1 [Example 93]

> 1 µM
0.01 to 0.1 µM
0.1 to 1 µM

----------
- test_target: FLT3(D835Y) (Homo sapiens, UniProt P36888, D835Y)
- Construct: Recombinant proteins containing FLT3 and FLT3(D835Y) domains were purchased from Promega
- test_description: ADP-Glo kinase assay FLT3 D835Y
- study_conditions: recombinant FLT3(D835Y), 120 minutes at room temperature, read-out: Enzyme (IC50) FLT3 D835Y
quantity_name: IC50

Measured IC50 of NCCCNC(=O)c1ccc2[nH]nc(-c3nc4ccc(C(=O)N5CCOCC5)cc4[nH]3)c2c1 [Example 21] : < 10 nM

----------
- Test system: BaF3-ITD-FLT3 D835Y cell line
- test_description: Cell proliferation inhibition, Alamar Blue
- Type: cell-based
- study_conditions: 72 hours of compound treatment, read-out: Cellular (GI50) BaF3-ITD-FLT3 D835Y
quantity_name: GI50

Record excerpt, results attached:
O=C(NCCCC(F)(F)F)c1ccc2[nH]nc(-c3nc4ccc(N5CCCC5)cc4[nH]3)c2c1; 10 to 100 nM
N[C@H]1CC[C@H](NC(=O)c2ccc3[nH]nc(-c4nc5ccc(-c6ccco6)cc5[nH]4)c3c2)C1; < 10 nM

Batch lookup, GI50 per entry.
1. N[C@H]1CC[C@H](NC(=O)c2ccc3[nH]nc(-c4nc5ccc(N6CCCCC6)cc5[nH]4)c3c2)C1
2. O=C(NCC1CNC1)c1ccc2[nH]nc(-c3nc4ccc(-c5ccoc5)cc4[nH]3)c2c1
3. O=C(NCC1CC(F)(F)C1)c1ccc2[nH]nc(-c3nc4ccc(N5CCCC5)cc4[nH]3)c2c1

1: < 10 nM; 2: < 10 nM; 3: 10 to 100 nM

----------
For each entry below, report its GI50 value.
- Test system: MV4-11 cells (FLT3-ITD-expressing AML cell line)
- test_description: Cell proliferation inhibition, Alamar Blue
- Type: cell-based, human
- study_conditions: Homo sapiens, MV4-11, 72 hours of compound treatment, read-out: Cellular (GI50) MV4-11

Known GI50 results, listed for orientation:
CN(C)CCOc1ccc2nc(-c3n[nH]c4ccc(C(=O)NCCCN)cc34)[nH]c2c1; 100 to 1000 nM
O=C(c1ccc2[nH]nc(-c3nc4ccc(N5CCOCC5)cc4[nH]3)c2c1)N1C[C@@H]2C[C@H]1CN2; 10 to 100 nM
NCCCNC(=O)c1ccc2[nH]nc(-c3nc(C(N)=O)c(-c4ccccc4)[nH]3)c2c1; 100 to 1000 nM

Dear colleague, could you send me GI50 for each of the items below? Thanks.
1. O=C(NCC1CNC1)c1ccc2[nH]nc(-c3nc4ccc(-c5ccoc5)cc4[nH]3)c2c1
2. O=C(c1ccc2[nH]nc(-c3nc4ccc(N5CCOCC5)cc4[nH]3)c2c1)N1C[C@H]2C[C@@H]1CN2
3. O=C(N[C@@H]1CCCNC1)c1ccc2[nH]nc(-c3nc4ccc(F)cc4[nH]3)c2c1
4. CN(C)CCNC(=O)c1ccc2[nH]nc(-c3nc4ccc(N5CCOCC5)cc4[nH]3)c2c1
5. COCc1cnc(-c2n[nH]c3ccc(C(=O)NCCCN)cc23)[nH]1

["10 to 100 nM", "10 to 100 nM", "> 1000 nM", "< 10 nM", "> 1000 nM"]

Here are 4 compounds. What values of GI50 were reported for them?
1. CN1CCN(C2CCN(C(=O)c3ccc4[nH]nc(-c5nc6ccc(F)cc6[nH]5)c4c3)CC2)CC1
2. CN1CCN(C(=O)c2ccc3[nH]nc(-c4nc5ccccc5[nH]4)c3c2)CC1
3. NC1CCN(CCNC(=O)c2ccc3[nH]nc(-c4nc(-c5ccccc5)c[nH]4)c3c2)CC1
4. N[C@H]1CC[C@H](NC(=O)c2ccc3[nH]nc(-c4nc5ccc(N6CCCCC6)cc5[nH]4)c3c2)C1

1: > 1000 nM; 2: 100 to 1000 nM; 3: > 1000 nM; 4: < 10 nM
